Tested on: sugar beet
protocol-text: Test B pre/postemergence sugar beet
Format: in vivo, Beta vulgaris
measurement-setup: Preemergence, Rate 250 g/ha; scale of 0 to 10 where 0 is no effect and 10 is complete control
// reported Sugarbeets plant response rating per item
readout: Sugarbeets plant response rating

smiles-str: COC(=O)CCCn1c(=O)on(C(=O)N(c2ccc(F)cc2)C(C)C)c1=O
recorded-value: 7
--
smiles-str: COCn1c(=O)on(C(=O)N(c2ccc(F)cc2)C(C)C)c1=O
recorded-value: 4
--
smiles-str: CCCCc1ccc(N(C(=O)n2oc(=O)n(-c3ccccc3C)c2=O)C(C)C)cc1
recorded-value: 0
--
smiles-str: CSCCn1c(=O)on(C(=O)N(c2ccc(F)cc2)C(C)C)c1=O
recorded-value: 2
--
smiles-str: CCOc1nc(C(F)(F)F)c(Cn2c(=O)on(C(=O)N(c3ccccc3)C(C)C)c2=O)s1
recorded-value: 0
--
smiles-str: CCOC(=O)C=CCn1c(=O)on(C(=O)N(c2ccc(F)cc2)C(C)C)c1=O
recorded-value: 0
--
smiles-str: CC(C)N(C(=O)n1oc(=O)n(Cc2nnsc2Cl)c1=O)c1ccccc1
recorded-value: 0
